Consider compounds characterized by their AC50 with Adenosine receptor A3 (Homo sapiens).
Sequence (P0DMS8 whole entry): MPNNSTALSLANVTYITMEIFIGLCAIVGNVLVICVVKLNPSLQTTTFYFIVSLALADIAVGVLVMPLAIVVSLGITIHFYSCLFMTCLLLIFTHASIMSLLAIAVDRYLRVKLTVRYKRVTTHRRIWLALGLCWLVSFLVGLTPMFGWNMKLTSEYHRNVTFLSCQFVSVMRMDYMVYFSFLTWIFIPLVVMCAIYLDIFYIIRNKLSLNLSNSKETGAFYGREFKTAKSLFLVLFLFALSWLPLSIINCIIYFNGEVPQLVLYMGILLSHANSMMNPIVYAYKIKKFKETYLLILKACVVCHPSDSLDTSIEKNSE

Worked examples, 2 compounds total:
Ask | Any idea what its AC50 is? The compound is C[C@]12CCC(=O)C[C@@H]1CC[C@@H]1[C@@H]2CC[C@]2(C)[C@@H](O)CC[C@@H]12 [STANOLONE]
Reply | > 30 µM

Ask | What about CNC(=C[N+](=O)[O-])NCCSCc1csc(CN(C)C)n1 [NIZATIDINE] ?
Reply | > 10 µM

***
Ask | I'd like to know its AC50. The compound in question is CC/C=C\C/C=C\C/C=C\C/C=C\C/C=C\CCCC(=O)OCC [ICOSAPENT ETHYL]
Reply | 18 µM

Ask | // query: Cc1onc(-c2c(F)cccc2Cl)c1C(=O)N[C@@H]1C(=O)N2[C@@H]1SC(C)(C)[C@@H]2C(=O)O [FLOXACILLIN]
Reply | > 30 µM

Ask | // query: COc1ccc(C2C(=O)c3ccccc3C2=O)cc1 [ANISINDIONE]
Reply | > 10 µM

Ask | Follow-up entry: C[C@@H]1C[C@H]2[C@@H]3CCC4=CC(=O)C=C[C@]4(C)[C@@]3(F)[C@@H](O)C[C@]2(C)[C@@]1(O)C(=O)CO [DEXAMETHASONE]
Reply | > 30 µM

Ask | And for CCC(=O)O[C@](Cc1ccccc1)(c1ccccc1)[C@H](C)CN(C)C [PROPOXYPHENE] ?
Reply | > 30 µM

Ask | Lookup CCCNC(=O)NS(=O)(=O)c1ccc(Cl)cc1 [CHLORPROPAMIDE]
Reply | > 30 µM

Ask | And CCCCCCCN(CC)CCCC(O)c1ccc(NS(C)(=O)=O)cc1 (stereo not given) [IBUTILIDE] ?
Reply | > 30 µM

Ask | Input Oc1ccc(CCNCCCCCCNCCc2ccccc2)cc1O [DOPEXAMINE]
Reply | 12 µM

Ask | Another: Fc1ccc([C@@H]2CCNC[C@H]2COc2ccc3c(c2)OCO3)cc1 [PAROXETINE]
Reply | 22.5 µM

Ask | // query: COc1cc(C(=O)NS(=O)(=O)c2ccccc2C)ccc1Cc1cn(C)c2ccc(NC(=O)OC3CCCC3)cc12 [ZAFIRLUKAST]
Reply | 11.4 µM

Ask | Queued: C[N+]12CCC(CC1)C(OC(=O)C(O)(c1ccccc1)c1ccccc1)C2 (stereo not given)
Reply | > 30 µM

Ask | And for COc1ccccc1OC1(C)OC(=O)c2ccccc2O1 (stereo not given) [GUAIMESAL] ?
Reply | > 30 µM

Ask | Also check CC[C@@H](CO)NC(=O)[C@@H]1C=C2c3cccc4c3c(cn4C)C[C@H]2N(C)C1 [METHYSERGIDE]
Reply | > 30 µM
